system: RXRa homodimer (NR concentration 180 nM); test: PBM binding z-score (relative to random genomic background probes); higher = stronger binding; sequences stand for … in GC…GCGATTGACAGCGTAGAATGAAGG
Label 1 for high-side PBM binding z-score (at or above 3) and -1 for low-side PBM binding z-score (below it).

The following sequences have reported results that may help.
RECORD_SEQUENCE: ACTAGTTTGTCAGCTGAGGTCACACACAATTCGG
TEST_SYSTEM: RXRa homodimer (NR concentration 180 nM)
GROUP_LABEL: 1

RECORD_SEQUENCE: TTTACAGGGTCAAAGGCCAGAGTACGAATGTCGA
TEST_SYSTEM: RXRa homodimer (NR concentration 180 nM)
GROUP_LABEL: 1

RECORD_SEQUENCE: CCTAATGGGCCACGAAAGGTCATTGATTCAGTGA
TEST_SYSTEM: RXRa homodimer (NR concentration 180 nM)
GROUP_LABEL: 1

RECORD_SEQUENCE: GGAACCAGGGCAAAGTTGATAGCATCTGTCGACG
TEST_SYSTEM: RXRa homodimer (NR concentration 180 nM)
GROUP_LABEL: -1

RECORD_SEQUENCE: ATACCAAGGTGATCGTGAGGTCGTTGAGACTAAC
TEST_SYSTEM: RXRa homodimer (NR concentration 180 nM)
GROUP_LABEL: -1

RECORD_SEQUENCE: TATCCTAGGTCATTGGGCCAGTATAGTACGCATC
TEST_SYSTEM: RXRa homodimer (NR concentration 180 nM)
GROUP_LABEL: 1

Is the recorded value of PBM binding z-score equal to or greater than 3 for this sequence? CCTACTGGGCCAAAAGTCATTGATTCCAATGCTC -1

// next record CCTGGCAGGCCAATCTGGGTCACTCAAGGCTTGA -1

// next record TGAATGAGGTTAAAGATCAGGTAACGTGGCGTCG 1

// next record TCTGCTACGTCAGTTGGTCAGCTAACGAGCTGCC -1

// next record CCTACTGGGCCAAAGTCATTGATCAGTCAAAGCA -1

====

Recorded PBM binding z-score for the following sequences
test system: PPARg homodimer (NR concentration 180 nM); test: PBM binding z-score (relative to random genomic background probes); higher = stronger binding; sequences stand for … in GC…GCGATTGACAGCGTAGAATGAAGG
Reply with the value as a number alone.

Reference set, count: 3
RECORD_SEQUENCE: ATATGTAGGTTAAGGGTCATTCTGGTTGGTTCGC
TEST_SYSTEM: PPARg homodimer (NR concentration 180 nM)
PBM binding z-score: 4.67
//
RECORD_SEQUENCE: ATCTCTAGGTAACCAAGTTCAGTAAATGCCGAAC
TEST_SYSTEM: PPARg homodimer (NR concentration 180 nM)
PBM binding z-score: 1.32
//
RECORD_SEQUENCE: AGAATGAGGTTTCCAAAGATCAGGGAAACGCTTG
TEST_SYSTEM: PPARg homodimer (NR concentration 180 nM)
PBM binding z-score: -0.417

// PBM binding z-score lookup, key: CCTACTGGGCCCTTCAGAGGTCATTGATCATATG 3.64

// next record CTCGAAAGGTCGTGCTCCGGTGAGTATACCAAAC 2.34

// next record ATTCGGAGGACAAAGGTCAGAGCTACGCCAGTGA 3.33

// next record CCAGACACGTGAAAGGTAACTCAGTCTGGTACGC -0.0268

// next record TCTGCTAGGTCAGTTGGTCACCTAACGAGCTGCC 0.461

// next record CCCACTGGGCCACGAAAGGTCATTGATTCAGTGA 3

// next record GCTAGTTGGTCAGTAAAAGGTCACACAGCGGTCG 8.6
